system: Plasmodium falciparum; test: In vitro antiplasmodial activity against chloroquine-sensitive Plasmodium falciparum Haiti 135; assay type: functional, organism-based
# pIC50 values compiled below
Quick note: pIC50 means taking -log10 of the concentration in moles per liter.

See these solved cases before continuing.
COMPOUND	RECORDED_VALUE
CCN(CC)CCCCCCCCCCNc1ccnc2cc(F)ccc12	8.15
CCN(CC)CC(C)Nc1ccnc2cc(Cl)ccc12 (stereo not drawn)	8.10

Test item CCN(CC)CCCCCCNc1ccnc2cc(Cl)ccc12 ; Plasmodium falciparum; reported pIC50 was 8.30

Test item CCN(CC)CCCNc1ccnc2cc(Br)ccc12 ; Plasmodium falciparum; reported pIC50 was 8.40

Test item CCN(CC)CCCCCCCCCCCCNc1ccnc2cc(C(F)(F)F)ccc12 ; Plasmodium falciparum; reported pIC50 was 8.30

Test item CCN(CC)CCNc1ccnc2cc(I)ccc12 ; Plasmodium falciparum; reported pIC50 was 8.22

Test item CCN(CC)CCCNc1ccnc2cc(F)ccc12 ; Plasmodium falciparum; reported pIC50 was 7.64

Test item CCN(CC)CCCCCCCCCCNc1ccnc2cc(C(F)(F)F)ccc12 ; Plasmodium falciparum; reported pIC50 was 8.00

Test item CCN(CC)CCCC(C)Nc1ccnc2cc(F)ccc12 (stereo not drawn) ; Plasmodium falciparum; reported pIC50 was 7.70

Test item CCN(CC)CCCNc1ccnc2cc(Cl)ccc12 ; Plasmodium falciparum; reported pIC50 was 8.30

Test item CCN(CC)CCCNc1ccnc2cc(C(F)(F)F)ccc12 ; Plasmodium falciparum; reported pIC50 was 7.82

Test item CCN(CC)CCCCCNc1ccnc2cc(Cl)ccc12 ; Plasmodium falciparum; reported pIC50 was 8.22

Test item CCN(CC)CCCNc1ccnc2cc(I)ccc12 ; Plasmodium falciparum; reported pIC50 was 8.52
